hCD71:HSA by entry:
# experimental target: T1, recombinant biotinylated CD71 extracellular domain (Sino Biologics) with an N-terminal 6His tag (human, UniProt P02786 89-760, biotinylated (sites not given))
# T1 construct: extracellular domain; also called hCD71; huCD71
# T1 sequence (P02786 other isoform, or with tags, fused parts or gaps): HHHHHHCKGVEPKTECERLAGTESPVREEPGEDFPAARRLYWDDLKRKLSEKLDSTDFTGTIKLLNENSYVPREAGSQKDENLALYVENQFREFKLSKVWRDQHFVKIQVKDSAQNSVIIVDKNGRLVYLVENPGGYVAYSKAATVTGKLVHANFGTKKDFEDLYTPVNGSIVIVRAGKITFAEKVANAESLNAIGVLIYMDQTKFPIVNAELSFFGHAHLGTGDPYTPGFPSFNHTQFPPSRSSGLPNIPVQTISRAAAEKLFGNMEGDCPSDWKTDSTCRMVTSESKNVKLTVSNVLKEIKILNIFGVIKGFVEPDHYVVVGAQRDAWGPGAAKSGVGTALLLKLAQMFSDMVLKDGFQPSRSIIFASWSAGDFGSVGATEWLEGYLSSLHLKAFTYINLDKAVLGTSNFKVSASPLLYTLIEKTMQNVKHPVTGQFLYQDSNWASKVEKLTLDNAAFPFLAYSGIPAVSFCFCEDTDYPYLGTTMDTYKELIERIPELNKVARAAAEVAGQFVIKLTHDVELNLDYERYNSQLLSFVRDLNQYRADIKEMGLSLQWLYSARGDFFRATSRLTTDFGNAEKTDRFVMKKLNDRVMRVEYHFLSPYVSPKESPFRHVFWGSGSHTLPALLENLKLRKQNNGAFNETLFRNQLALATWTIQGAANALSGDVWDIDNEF
# assay: screening ELISA, ratio

Worked examples, 5 binders total:
binder	measured endpoint	reading
SEQ ID NO 176 (designed binder, FN3 domain) MLPAPKNLVVSRVTEDSARLSWTAPDAAFDSFPIAYAEPRPDGEAIVLTVPGSERSYDLTGLKPGTEYSVGIHGVKGGHDSSPLSAIFTT	hCD71:HSA	129
SEQ ID NO 226 (designed binder, FN3 domain) MLPAPKNLVVSRVTEDSARLSWTAPDAAFDSFHIIYEEVLTEGEAIYLRVPGSERSYDLTGLKPGTEYGVTIKGVKGGAYSIPLIATFTT	hCD71:HSA	1520
SEQ ID NO 255 (designed binder, FN3 domain) MLPAPKNLVVSRVTEDSARLSWTAPDAAFDSFDIEYYELIGRGEAIVLTVPGSERSYDLTGLKPGTEYWVGIYGVKGGWLSRPLSAIFTT	hCD71:HSA	403
SEQ ID NO 164 (designed binder, FN3 domain) MLPAPKNLVVSRVTEDSARLSWTAPDAAFDSFLIPYAETSPSGEAIVLTVPGSERSYDLTGLKPGTEYSVLIHGVKGGHLSDPLSAIFTT	hCD71:HSA	2370
SEQ ID NO 251 (designed binder, FN3 domain) MLPAPKNLVVSRVTEDSARLSWTAPDAAFDSFFIGYLEPQPPGEAIVLTVPGSERSYDLTGLKPGTEYNVTIQGVKGGFPSMPLSAIVTT	hCD71:HSA	284

[in] State, in one line, measured hCD71:HSA of SEQ ID NO 191 (designed binder, FN3 domain) MLPAPENLVVSRVTEDSARLSWTAPDAAFDSFEITYEENWRRGEAIVLTVPGSERSYDLTGPKPGTEYIVIIQGVKGGAESWPLSAIFTT
[out] 43

[in] State, in one line, measured hCD71:HSA of SEQ ID NO 259 (designed binder, FN3 domain) MLPAPKNLVVSRVTEDSARLSWTAPDAAFDSFTIEYFEFVDAGEAIVLTVPGSERSYDLTGLKPGTEYWVEIWGVKGGSWSKPLSAIFTT
[out] 1160

[in] State, in one line, measured hCD71:HSA of SEQ ID NO 233 (designed binder, FN3 domain) MLPAPKNLVVSRVTEDSARLSWTAPDAAFDSFYIVYAEPIPNGEAIVLTVPGSERSYDLTGLKPGTEYSVLIHGVKGGRNSDPLSAIFTT
[out] 1310

[in] State, in one line, measured hCD71:HSA of SEQ ID NO 264 (designed binder, FN3 domain) MLPAPKNLVVSRVTEDSARLSWTAPDAAFDSFRIKYQEWWVEGEAIVLTVPGSERSYDLTGLKPGTEYVVQIAGVKGGLSSYPLSAIFTT
[out] 1170
